Can you tell me GI50 for the items I'm about to list?
test system: SF-295; test: In vitro growth inhibitory activity against human SF-295 cancer cell line; type: functional
Number in µM, nothing else.

Quick one: GI50 of c1ccc2c(-c3csc(-c4c[nH]c5ccccc45)n3)c[nH]c2c1 ?
33.6

Fill in the blank: the reported GI50 of Brc1ccc2c(-c3nc(-c4c[nH]c5ccccc45)cs3)c[nH]c2c1 is ____.
9.23

Which GI50 is listed for Brc1ccc2c(-c3csc(-c4c[nH]c5ccccc45)n3)c[nH]c2c1 ?
14.6

Record request: GI50 value, item Brc1ccc2c(-c3csc(-c4c[nH]c5cc(Br)ccc45)n3)c[nH]c2c1
4.81

----------
tested on: HCT-15; test: In vitro growth inhibitory activity against human HCT-15 cancer cell line; assay type: functional
Assignment: determine reported GI50 for the given molecules.
Numbers only here, please. The scale is µM.

Give its GI50 value. Item: Brc1ccc2c(-c3csc(-c4c[nH]c5cc(Br)ccc45)n3)c[nH]c2c1
8.5

Recorded GI50 of Brc1ccc2c(-c3csc(-c4c[nH]c5ccccc45)n3)c[nH]c2c1 , please.
15.2

Value lookup for GI50; key = Brc1ccc2c(-c3nc(-c4c[nH]c5ccccc45)cs3)c[nH]c2c1
17.8

----------
test system: NCI-H23; test: In vitro growth inhibitory activity against human NCI-H23 cancer cell line; assay type: functional
QUANTITY_KIND: GI50 (µM)
Give the number; µM is assumed, so skip it.

Name the reported GI50 value associated with the compound Brc1ccc2c(-c3csc(-c4c[nH]c5cc(Br)ccc45)n3)c[nH]c2c1
14.1

Entry Brc1ccc2c(-c3nc(-c4c[nH]c5ccccc45)cs3)c[nH]c2c1 has what GI50?
25.8

Entry under review: Brc1ccc2c(-c3csc(-c4c[nH]c5ccccc45)n3)c[nH]c2c1 . Reported GI50?
14.5
